Data origin, for the record: patent US7514529B2

- Tested on: target rabbit anti-LOS antibody
- procedure_summary: Peptide ELISA (NucleoLink strips): synthetic peptides binding the target anti-LOS antibody
- condition_description: 5 μg peptide coupled to strip, 0.4 μg/well target antibody, average of duplicates
Strictly below 0.4 OD405 in Binding reactivity (OD405): YES. Otherwise: NO.

Check out these entries, answers already filled in.
# residues, category_label
records = [
    ("NMMNYIMDPRTH [Peptide 2]", "NO"),
    ("NMMRFTELSTPS [Peptide 4]", "NO"),
    ("NMMKYISPPIFL [Peptide 3]", "NO"),
]

Input line: Problem: For the sequence TLAHHKKPWILR [Peptide 5, control peptide from an unrelated clone, reference compound] , is Binding reactivity (OD405) under 0.4 OD405?
Output line: YES
